test name: Volume of distribution in iv dosed mouse
Type: ADME, organism-based
details: in vivo
measure name: Vd
# do not omit the unit; it follows the number

# input Please give the measured Vd for this compound: CN1CCCN(C(=O)c2cccc(-c3ccc(/C=C4/C(=O)Nc5ccc(Cl)cc54)o3)c2)CC1
# output 85 L/kg
